# Measured On: human Edg-2 receptor (Homo sapiens)
# Sequence (Q92633 whole entry): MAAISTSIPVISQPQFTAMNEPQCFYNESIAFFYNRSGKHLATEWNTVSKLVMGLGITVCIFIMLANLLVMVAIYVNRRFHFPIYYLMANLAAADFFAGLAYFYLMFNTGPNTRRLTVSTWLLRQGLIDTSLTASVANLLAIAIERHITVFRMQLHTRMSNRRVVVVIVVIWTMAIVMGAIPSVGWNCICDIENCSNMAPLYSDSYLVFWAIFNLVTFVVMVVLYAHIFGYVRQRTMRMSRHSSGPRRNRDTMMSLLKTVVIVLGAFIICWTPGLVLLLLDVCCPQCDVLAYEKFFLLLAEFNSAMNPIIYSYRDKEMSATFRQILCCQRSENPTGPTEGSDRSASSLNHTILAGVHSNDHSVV
# Test: Determination of Edg-2 receptor inhibition by FLIPR measurements (LPA-mediated calcium liberation)
# Applied Conditions: CHO cells overexpressing human Edg-2 receptor, LPA 100 nM, fluo-4 calcium fluorescence; read-out: Inhibitory concentrations IC50 for inhibition of the Edg-2 receptor
# Text: A) Determination of Edg-2 Receptor Inhibition by Fluorescence Imaging Plate Reader (FLIPR) Measurements The inhibition of the Edg-2 receptor (LPA1 receptor) by the compounds of the invention was quantified by the inhibitory effect on the LPA-mediated calcium liberation in a cell-based calcium fluorescence assay by use of Chinese hamster ovarian (CHO) cells in which the human Edg-2 receptor was stably overexpressed (Flp-In system, Invitrogen). […]
pIC50: −log10 of the molar value.
Value Type: pIC50

CC[C@H]1CC[C@@](NC(=O)c2cc(OCCc3cccc(Cl)c3)c(C(C)=O)s2)(C(=O)O)CC1 [Example 439] ... 6.00 to 7.00
COc1ncc(C(=O)N[C@]2(C(=O)O)CC[C@H](C)CC2)cc1OCCc1ccccc1 [Example 400] ... > 7.00
CC[C@H]1CC[C@](NC(=O)c2cnc(OC)c(-c3cc(Cl)cc(C(F)(F)F)c3)c2)(C(=O)O)CC1 [Example 302] ... > 7.00
CC[C@H]1CC[C@](NC(=O)c2cnc(OC)c(-c3cc(F)cc(F)c3)c2)(C(=O)O)CC1 [Example 360] ... > 7.00
CCc1ccc(C(=O)NC2(C(=O)O)CCCCCC2)cc1OCCc1cccc(C)c1 [Example 62] ... > 7.00

Return reported pIC50; argument: COc1ccc(C(=O)NC2(C(=O)O)CCCC2OCc2ccccc2)cc1OCCc1cccc(C)c1 (single isomer, unassigned) [Example 66]
6.00 to 7.00

Next record, please: COc1ccc(C(=O)NC2(C(=O)O)CCCCCC2)c(F)c1OCCc1cccc(C)c1 [Example 69]
6.00 to 7.00

Next record, please: CCc1ncc(C(=O)N[C@]2(C(=O)O)CC[C@H](C)CC2)cc1OCCc1cccc(Cl)c1 [Example 435]
6.00 to 7.00

----------
# Measured On: human Edg-2 receptor (Homo sapiens)
# Test: Determination of Edg-2 receptor inhibition by FLIPR measurements (LPA-mediated calcium liberation)
# Applied Conditions: CHO cells overexpressing human Edg-2 receptor, LPA 100 nM, fluo-4 calcium fluorescence; read-out: Inhibitory concentrations IC50 for inhibition of the Edg-2 receptor
pIC50: −log10 of the molar value.
Catalogue of molecules with associated pIC50

COc1ncc(C(=O)NC2(C(=O)O)CCCCCC2)cc1-c1cccc(C(F)(F)F)c1 ... > 7.00
CCC1CC1(NC(=O)c1ccc(OC)c(OCCc2cccc(C)c2)c1)C(=O)O (stereo not shown) ... > 7.00
COc1ccc(-c2cc(C(=O)N[C@]3(C(=O)O)CC[C@H](C)CC3)cnc2OC)cc1Cl ... > 7.00

Continue with the molecule presented below.
Return reported pIC50; argument: COc1ncc(C(=O)NC2(C(=O)O)CCCCCCC2)cc1OCCc1cccc(C)c1
6.00 to 7.00

----------
# Measured On: human Edg-2 receptor (Homo sapiens)
# Test: Determination of Edg-2 receptor inhibition by FLIPR measurements (LPA-mediated calcium liberation)
# Applied Conditions: CHO cells overexpressing human Edg-2 receptor, LPA 100 nM, fluo-4 calcium fluorescence; read-out: Inhibitory concentrations IC50 for inhibition of the Edg-2 receptor
pIC50: −log10 of the molar value.
Catalogue of compounds with associated pIC50

COc1ccc(C(=O)N[C@]2(C(=O)O)CC[C@H](C)CC2)cc1-c1cccc(C(F)(F)F)c1 [Example 333] ... > 7.00

Continue with the compound presented below.
Return reported pIC50; argument: CC[C@H]1CC[C@](NC(=O)c2cnc(OCCO)c(-c3cccc(C(F)(F)F)c3)c2)(C(=O)O)CC1 [Example 413]
> 7.00

Taken from patent US9018383B2.
